- Tgt: T1, SARS-CoV-2 RBD-SD1 with murine IgG2a Fc part, produced in High Five cells (SARS-CoV-2, UniProt P0DTC2)
- T1 construct: source: High Five insect cells, transient transfection, purified (Protein A)
- Protocol Notes: ELISA
- Condition Context: both partners purified
Exercise: state measured EC50 for each of the binders provided.
Kindly report the value followed by its unit.

Provide each entry's EC50 from the list below.
1. STE73-2C2 scFv-Fc (scFv, V domains shown, also called scFv-hFc; source: Expi293F, transient transfection, purified (Protein A)) VH: QVQLVESGGGLVQPGGSLRLSCAASGITVSSNYMSWVRQAPGKGLEWVSVIYSGGSTFYADSVKGRFTISRDNSKNTLYLQMNSLRAEDTGVYYCARGHDNLDYWGQGTLVTVSS VL: LPVLTQPHSVSESPGKTVIISCTGSSDSIASNYVQWYQQRPGSAPTTVIYEDNKRPSGVPDRFSGSTDSSSNSASLTISGLKTEDEAEYYCQSYDSNNHWVFGGGTKLTVL
2. STE70-1E12 scFv-Fc (scFv, V domains shown, also called scFv-hFc; source: Expi293F, transient transfection, purified (Protein A)) VH: QMQLVQSGAEVKKPGASVKVSCKASGYTFTGYYMHWVRQAPGQGLEWMGRINPNSGGTNYAQKFQGRVTMTRDTSTSTAYMELSRLRSDDTAVYYCVRDGYNFNNWFDPWGQGTLVTVSS VL: NFMLTQPHSVSGSPGETITISCTGSGGSIASNYVQWYRQRPGSAPTIVIYEDTQRPSGVPDRFSGSIDSSSNSASLTISGLKTEDEADYYCQSSESTNHVMFGGGSKLTVL
3. STE72-4E12 scFv-Fc (scFv, V domains shown, also called scFv-hFc; source: Expi293F, transient transfection, purified (Protein A)) VH: QVQLVQSGAEVKKPGASVKVSCKASGYTFTSYYMHWVRQAPGQGLEWMGIINPSGGSTSYAQKFQGRVTMTRDTSTSTVYMELSSLRSEDTAVYYCARDLSGGLDYWGQGTLVTVSS VL: ETTLTQSPATLSVSPGERVTLACRAGQTISSKLAWYRQKPGQAPSLLIYDASTRATGVPARFSGSGSGTEFTLTISSLQSEDFAVYYCQQYSDWPPTFGQGTKVEIK

Result:
3.1 nM
0.3 nM
1.5 nM
